// provenance: the RNAGym collection of RNA variant scans (doi:10.1021/acssynbio.7b00057)

B1: Pistol ribozyme (parent)
chain: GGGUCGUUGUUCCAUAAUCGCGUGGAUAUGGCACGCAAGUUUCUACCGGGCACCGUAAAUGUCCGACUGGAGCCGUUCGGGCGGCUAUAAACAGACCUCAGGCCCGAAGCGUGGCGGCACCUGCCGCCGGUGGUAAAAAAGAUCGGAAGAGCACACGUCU

Variants of: B1
Assay: aptazyme ON/OFF ratio, guanine; higher = stronger switching; co-transcriptional cleavage with and without guanine
Known aptazyme ON/OFF ratio of a selection of variants
Lab note: record the figure alone, no unit after it.

{"columns": ["MUTANT", "READOUT", "ENDPOINT_VALUE"],
 "data": [
  ["U7C U8G G9A U11A C12A C13G", "aptazyme ON/OFF ratio", 1.15],
  ["U7G U8A G9U U10G U11G C12A C13A", "aptazyme ON/OFF ratio", 1.07],
  ["U8C G9A U10C U11A C12U C13U", "aptazyme ON/OFF ratio", 1.28],
  ["U8A G9C U11G C12A C13U", "aptazyme ON/OFF ratio", 1.2],
  ["U8A G9A U10C U11C C12G C13G", "aptazyme ON/OFF ratio", 1.13],
  ["U7A U8G G9U U11G C12U", "aptazyme ON/OFF ratio", 1.26],
  ["U7C G9C U10A U11C C12G C13U", "aptazyme ON/OFF ratio", 1.17],
  ["U7C U8G G9A U10G C12U C13U", "aptazyme ON/OFF ratio", 1.26]
]}

# input variant: U7G U8G G9A U10G U11A ; wanted: its aptazyme ON/OFF ratio 1.07

Name the reported aptazyme ON/OFF ratio value associated with the variant U7G U8C G9A C12A C13U 1.06

I would be grateful if you could share the reported aptazyme ON/OFF ratio for U7C U8A G9C U10C U11A C12A C13G . 1.11

Field request: aptazyme ON/OFF ratio | item: U8C G9U U11G C12U C13U 1.14

What aptazyme ON/OFF ratio value was documented for this variant, U7C U8A G9U U10C U11G C12G C13U ? 1.11

Recorded aptazyme ON/OFF ratio for U7G U8A G9A U11G C12G , please? 1.41

May I ask what aptazyme ON/OFF ratio has been recorded for U7C U8C G9A C13G ? 1.11
